Cited source: patent US20100292205A1

Tested on: Recombinant human GSK3β (Homo sapiens)
Construct: His-tag; made in house; host or cells: Sf9 insect cells / baculovirus
Experimental protocol: GSK-3β (Glycogen Synthase Kinase) cell free enzyme assay
Format: biochemical
Condition parameters: cell free enzyme assay; Examples 62-155
Attribute measured: IC50 (nM)
// note: answer is a bare numeric in nM

Input: Bench note: what IC50 did CC(C)C(=O)N1C[C@@H]2[C@H](C1)[C@H]2N(C)c1nc(-c2ccncc2F)cc(=O)n1C show?
Output: 15.3

Input: Bench note: what IC50 did CN(c1nc(-c2ccncc2F)cc(=O)n1C)[C@H]1[C@@H]2CN(C(=O)c3ccncc3Cl)C[C@@H]21 show?
Output: 36.1

Input: Bench note: what IC50 did CCN(C[C@H]1CCCN1C(=O)c1ccccc1)c1nc(-c2ccncc2)cc(=O)n1C show?
Output: 29.5

Input: Bench note: what IC50 did CN(c1nc(-c2ccncc2F)cc(=O)n1C)[C@H]1[C@@H]2CN(C(=O)c3cc(F)ccc3F)C[C@@H]21 show?
Output: 1.69

Input: Bench note: what IC50 did CN(c1nc(-c2ccncc2F)cc(=O)n1C)[C@H]1[C@@H]2CN(C(=O)c3ccc(C(F)(F)F)cc3)C[C@@H]21 show?
Output: 15.1

Input: Bench note: what IC50 did Cn1c(N[C@H]2[C@@H]3CN(C(=O)c4ccccc4)C[C@@H]32)nc(-c2ccncc2)cc1=O show?
Output: 2

Input: Bench note: what IC50 did CN(c1nc(-c2ccncc2F)cc(=O)n1C)[C@H]1[C@@H]2CN(C(=O)c3ccc(C#N)cc3)C[C@@H]21 show?
Output: 42.6

====

Tested on: Recombinant human GSK3β (Homo sapiens)
Construct: His-tag; made in house; host or cells: Sf9 insect cells / baculovirus
Experimental protocol: GSK-3β (Glycogen Synthase Kinase) cell free enzyme assay
Type: biochemical
Condition parameters: 1 μM; Examples 201-221; read-out: Percent inhibition at 1 μM
Use 80% as the dividing line for inhibition at 1 µM, with the line itself on the y side and lower values as n.

Input: Record COC(=O)N1C[C@H](F)[C@H](Nc2nc(-c3ccncc3)cc(=O)n2C)C1 [Example 211] ; criterion: inhibition at 1 µM no lower than 80%. Met?
Output: n

Input: Record COC(=O)N1C[C@H]2CCN(c3nc(-c4ccncc4)cc(=O)n3C)[C@H]2C1 [Example 203] ; criterion: inhibition at 1 µM no lower than 80%. Met?
Output: n

Input: Record COC(=O)N1CC(CNc2nc(-c3ccncc3)cc(=O)n2C)C1 [Example 219] ; criterion: inhibition at 1 µM no lower than 80%. Met?
Output: n

Input: Record CCN(c1nc(-c2ccncc2)cc(=O)n1C)C1CCCN(C(=O)OC)CC1 (centres unmarked) [Example 215] ; criterion: inhibition at 1 µM no lower than 80%. Met?
Output: y

Input: Record COC(=O)N1CCC[C@@H]1CNc1nc(-c2ccncc2)cc(=O)n1C [Example 220] ; criterion: inhibition at 1 µM no lower than 80%. Met?
Output: y

Input: Record COC(=O)N1CCC(N(C)c2nc(-c3ccncc3)cc(=O)n2C)C1 (centres unmarked) [Example 213] ; criterion: inhibition at 1 µM no lower than 80%. Met?
Output: y

Input: Record COC(=O)N1CCCCC(Nc2nc(-c3ccncc3)cc(=O)n2C)C1 (centres unmarked) [Example 206] ; criterion: inhibition at 1 µM no lower than 80%. Met?
Output: y

Input: Record COC(=O)N1CCC(Nc2nc(-c3ccncc3)cc(=O)n2C)CC1 [Example 208] ; criterion: inhibition at 1 µM no lower than 80%. Met?
Output: n

Input: Record COC(=O)N1CCCC(Nc2nc(-c3ccncc3)cc(=O)n2C)C1 (centres unmarked) [Example 210] ; criterion: inhibition at 1 µM no lower than 80%. Met?
Output: y

Input: Record COC(=O)N1C[C@H](Nc2nc(-c3ccncc3)cc(=O)n2C)[C@@H](F)C1 [Example 207] ; criterion: inhibition at 1 µM no lower than 80%. Met?
Output: n

Input: Record COC(=O)N1CCCC(Nc2nc(-c3ccncc3)cc(=O)n2C)CC1 (centres unmarked) [Example 205] ; criterion: inhibition at 1 µM no lower than 80%. Met?
Output: y

Input: Record CCN(c1nc(-c2ccncc2)cc(=O)n1C)C1CCN(C(=O)OC)CC1 [Example 217] ; criterion: inhibition at 1 µM no lower than 80%. Met?
Output: y

Input: Record COC(=O)N1CC[C@@]2(C)C[C@H](N(C)c3nc(-c4ccncc4)cc(=O)n3C)CC[C@@H]12 [Example 216] ; criterion: inhibition at 1 µM no lower than 80%. Met?
Output: y

Input: Record COC(=O)N1CCC[C@H]1CNc1nc(-c2ccncc2)cc(=O)n1C [Example 218] ; criterion: inhibition at 1 µM no lower than 80%. Met?
Output: n

Input: Record COC(=O)N1CCC(CNc2nc(-c3ccncc3)cc(=O)n2C)C1 (centres unmarked) [Example 221] ; criterion: inhibition at 1 µM no lower than 80%. Met?
Output: n

====

Tested on: Recombinant human GSK3β (Homo sapiens, UniProt P49841)
Construct: His-tag; made in house; host or cells: Sf9 insect cells / baculovirus
Sequence (P49841 whole entry): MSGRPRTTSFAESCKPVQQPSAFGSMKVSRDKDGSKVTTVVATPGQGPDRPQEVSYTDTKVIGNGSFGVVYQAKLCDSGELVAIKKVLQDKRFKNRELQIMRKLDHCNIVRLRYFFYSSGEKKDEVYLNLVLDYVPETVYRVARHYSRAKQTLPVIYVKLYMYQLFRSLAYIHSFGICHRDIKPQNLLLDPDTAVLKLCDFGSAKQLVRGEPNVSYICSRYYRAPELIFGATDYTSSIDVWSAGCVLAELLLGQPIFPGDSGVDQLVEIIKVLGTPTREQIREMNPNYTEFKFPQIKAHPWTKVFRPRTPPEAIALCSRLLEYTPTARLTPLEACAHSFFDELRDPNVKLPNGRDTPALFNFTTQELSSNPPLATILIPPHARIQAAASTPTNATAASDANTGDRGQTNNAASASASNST
Experimental protocol: GSK-3β (Glycogen Synthase Kinase) cell free enzyme assay
Format: biochemical
Condition parameters: 1 μM; Examples 157-199; read-out: Percent inhibition at 1 μM
Use 80% as the dividing line for inhibition at 1 µM, with the line itself on the True side and lower values as False.

Input: Record CN(c1nc(-c2ccncc2)cc(=O)n1C)C1CCCN(S(=O)(=O)Cc2ccccc2)CC1 (centres unmarked) ; criterion: inhibition at 1 µM no lower than 80%. Met?
Output: True

Input: Record Cn1c(N[C@H]2[C@@H]3CN(S(C)(=O)=O)C[C@@H]32)nc(-c2ccncc2)cc1=O ; criterion: inhibition at 1 µM no lower than 80%. Met?
Output: False

Input: Record Cn1c(NC2CCN(S(=O)(=O)c3ccccc3)C2)nc(-c2ccncc2)cc1=O (centres unmarked) ; criterion: inhibition at 1 µM no lower than 80%. Met?
Output: True

Input: Record Cn1c(NCC2CCN(S(=O)(=O)c3ccccc3)C2)nc(-c2ccncc2)cc1=O (centres unmarked) ; criterion: inhibition at 1 µM no lower than 80%. Met?
Output: False

Input: Record CN(c1nc(-c2ccncc2)cc(=O)n1C)[C@@H]1CC[C@H]2N(S(=O)(=O)Cc3ccccc3)CCC2(C)C1 (some centres unmarked) ; criterion: inhibition at 1 µM no lower than 80%. Met?
Output: True

Input: Record Cn1c(N[C@H]2[C@@H]3CN(S(=O)(=O)c4ccccc4)C[C@@H]32)nc(-c2ccncc2)cc1=O ; criterion: inhibition at 1 µM no lower than 80%. Met?
Output: True

Input: Record Cn1c(NC2CCCN(S(=O)(=O)c3ccccc3)C2)nc(-c2ccncc2)cc1=O (centres unmarked) ; criterion: inhibition at 1 µM no lower than 80%. Met?
Output: True

Input: Record CN(c1nc(-c2ccncc2)cc(=O)n1C)C1CCCN(S(=O)(=O)c2ccccc2)CC1 (centres unmarked) ; criterion: inhibition at 1 µM no lower than 80%. Met?
Output: True

Input: Record CN(c1nc(-c2ccncc2)cc(=O)n1C)C1CCCN(S(C)(=O)=O)CC1 (centres unmarked) ; criterion: inhibition at 1 µM no lower than 80%. Met?
Output: True

Input: Record Cn1c(N[C@@H]2CN(S(C)(=O)=O)C[C@@H]2F)nc(-c2ccncc2)cc1=O ; criterion: inhibition at 1 µM no lower than 80%. Met?
Output: True

Input: Record Cn1c(N[C@H]2CN(S(=O)(=O)c3ccccc3)C[C@@H]2F)nc(-c2ccncc2)cc1=O ; criterion: inhibition at 1 µM no lower than 80%. Met?
Output: True

Input: Record CN(c1nc(-c2ccncc2)cc(=O)n1C)[C@@H]1CC[C@H]2N(S(C)(=O)=O)CC[C@@]2(C)C1 ; criterion: inhibition at 1 µM no lower than 80%. Met?
Output: True

Input: Record Cn1c(NC2CCCN(S(=O)(=O)c3ccccc3)CC2)nc(-c2ccncc2)cc1=O (centres unmarked) ; criterion: inhibition at 1 µM no lower than 80%. Met?
Output: True

Input: Record CN(c1nc(-c2ccncc2)cc(=O)n1C)[C@H]1CC[C@H]2N(S(=O)(=O)c3ccccc3)CC[C@@]2(C)C1 ; criterion: inhibition at 1 µM no lower than 80%. Met?
Output: True

Input: Record CCN(c1nc(-c2ccncc2)cc(=O)n1C)C1CCCN(S(=O)(=O)c2ccccc2)C1 (centres unmarked) ; criterion: inhibition at 1 µM no lower than 80%. Met?
Output: True

Input: Record Cn1c(NC2CN(S(=O)(=O)c3ccccc3)C2)nc(-c2ccncc2)cc1=O ; criterion: inhibition at 1 µM no lower than 80%. Met?
Output: False

Input: Record CN(c1nc(-c2ccncc2)cc(=O)n1C)C1CCN(S(=O)(=O)c2ccccc2)C1 (centres unmarked) ; criterion: inhibition at 1 µM no lower than 80%. Met?
Output: True

Input: Record Cn1c(NC2CCN(S(=O)(=O)c3ccccc3)CC2)nc(-c2ccncc2)cc1=O ; criterion: inhibition at 1 µM no lower than 80%. Met?
Output: False

Input: Record CCN(c1nc(-c2ccncc2)cc(=O)n1C)C1CCN(S(=O)(=O)Cc2ccccc2)C1 (centres unmarked) ; criterion: inhibition at 1 µM no lower than 80%. Met?
Output: True

Input: Record CN(c1nc(-c2ccncc2)cc(=O)n1C)C1CCN(S(=O)(=O)Cc2ccccc2)C1 (centres unmarked) ; criterion: inhibition at 1 µM no lower than 80%. Met?
Output: True

Input: Record CN(c1nc(-c2ccncc2)cc(=O)n1C)[C@@H]1CC[C@H]2N(S(=O)(=O)c3ccccc3)CC[C@@]2(C)C1 ; criterion: inhibition at 1 µM no lower than 80%. Met?
Output: True

Input: Record CCN(C[C@H]1CCCN1S(C)(=O)=O)c1nc(-c2ccncc2)cc(=O)n1C ; criterion: inhibition at 1 µM no lower than 80%. Met?
Output: False

Input: Record Cn1c(NC[C@H]2CCCN2S(=O)(=O)c2ccccc2)nc(-c2ccncc2)cc1=O ; criterion: inhibition at 1 µM no lower than 80%. Met?
Output: True

Input: Record CCN(c1nc(-c2ccncc2)cc(=O)n1C)C1CCCN(S(C)(=O)=O)CC1 (centres unmarked) ; criterion: inhibition at 1 µM no lower than 80%. Met?
Output: True

Input: Record CCN(c1nc(-c2ccncc2)cc(=O)n1C)C1CCN(S(=O)(=O)c2ccccc2)CC1 ; criterion: inhibition at 1 µM no lower than 80%. Met?
Output: True

Input: Record CCN(c1nc(-c2ccncc2)cc(=O)n1C)C1CCCN(S(=O)(=O)Cc2ccccc2)CC1 (centres unmarked) ; criterion: inhibition at 1 µM no lower than 80%. Met?
Output: True
